Target: Histone-lysine N-methyltransferase, H3 lysine-79 specific (Homo sapiens)
Sequence (Q8TEK3 whole entry, the tested form may be a part): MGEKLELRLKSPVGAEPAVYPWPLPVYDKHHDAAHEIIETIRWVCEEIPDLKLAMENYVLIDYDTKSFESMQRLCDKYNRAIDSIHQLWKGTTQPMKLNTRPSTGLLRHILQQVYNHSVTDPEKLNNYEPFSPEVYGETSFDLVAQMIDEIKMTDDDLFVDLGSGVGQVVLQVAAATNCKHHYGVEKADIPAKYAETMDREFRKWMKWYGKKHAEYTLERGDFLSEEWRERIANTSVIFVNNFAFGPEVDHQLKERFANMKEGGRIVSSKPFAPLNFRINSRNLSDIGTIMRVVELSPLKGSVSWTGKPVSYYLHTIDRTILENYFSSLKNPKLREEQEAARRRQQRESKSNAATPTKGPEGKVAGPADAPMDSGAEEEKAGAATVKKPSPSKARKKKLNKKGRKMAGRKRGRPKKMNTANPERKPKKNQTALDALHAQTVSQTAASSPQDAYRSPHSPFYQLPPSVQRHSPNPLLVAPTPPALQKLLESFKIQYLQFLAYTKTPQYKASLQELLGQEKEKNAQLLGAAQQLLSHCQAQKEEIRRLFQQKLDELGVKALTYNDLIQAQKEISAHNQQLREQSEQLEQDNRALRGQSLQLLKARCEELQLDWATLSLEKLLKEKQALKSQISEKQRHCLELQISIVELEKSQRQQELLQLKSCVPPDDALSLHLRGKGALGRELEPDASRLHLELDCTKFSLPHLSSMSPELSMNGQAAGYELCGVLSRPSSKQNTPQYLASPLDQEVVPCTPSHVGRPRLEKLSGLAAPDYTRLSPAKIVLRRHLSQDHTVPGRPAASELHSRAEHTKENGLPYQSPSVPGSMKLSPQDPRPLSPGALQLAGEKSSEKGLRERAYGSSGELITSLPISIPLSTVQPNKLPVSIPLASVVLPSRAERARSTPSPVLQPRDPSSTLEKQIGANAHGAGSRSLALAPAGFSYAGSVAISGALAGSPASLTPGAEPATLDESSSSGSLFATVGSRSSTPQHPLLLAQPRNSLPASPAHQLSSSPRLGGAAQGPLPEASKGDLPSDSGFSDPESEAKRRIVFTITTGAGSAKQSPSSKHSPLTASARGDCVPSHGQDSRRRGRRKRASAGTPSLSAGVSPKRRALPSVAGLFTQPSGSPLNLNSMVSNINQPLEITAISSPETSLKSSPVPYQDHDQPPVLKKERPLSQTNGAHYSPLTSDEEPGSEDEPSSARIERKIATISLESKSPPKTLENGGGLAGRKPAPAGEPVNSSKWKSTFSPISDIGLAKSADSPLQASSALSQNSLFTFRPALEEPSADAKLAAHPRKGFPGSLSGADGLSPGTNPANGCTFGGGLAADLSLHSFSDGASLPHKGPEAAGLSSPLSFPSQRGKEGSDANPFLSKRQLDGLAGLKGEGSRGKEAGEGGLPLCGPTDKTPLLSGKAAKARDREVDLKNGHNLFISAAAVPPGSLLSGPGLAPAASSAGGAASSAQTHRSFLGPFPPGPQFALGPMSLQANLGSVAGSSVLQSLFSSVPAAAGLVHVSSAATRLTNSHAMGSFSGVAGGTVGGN
Experiment: Inhibition of recombinant N-terminal DOT1L (1 to 420 residues) (unknown origin) expressed in Escherichia coli (DE3) using [3H]-SAM as substrate preincubated for 30 mins followed by substrate addition and measured after 2 hrs by Topcount reader analysis
Details: read-out: IC50
pIC50: −log10 of the molar value.
endpoint: pIC50

A = CC(C)(C)c1ccc(NC(=O)NCCCNC[C@H]2O[C@@H](n3cc(Br)c4c(N)ncnc43)[C@H](O)[C@@H]2O)cc1
B = Cc1ccc(NC(=O)NCCCN(C[C@H]2O[C@@H](n3cnc4c(N)ncnc43)[C@H](O)[C@@H]2O)C(C)C)cc1
Query :: Which value of pIC50 is smaller, the one for A or the one for B ? API: response body contains the label of the selected item.
Result :: B

Provenance of the data: ChEMBL document CHEMBL5653612
